// provenance: patent US20220298235A1

Target: T1, Human IL12 (His Tag) (human, UniProt P29459 23-219; P29460 23-328)
T1 construct: Bought His-tagged heterodimer
T1 sequence (looked up) 1: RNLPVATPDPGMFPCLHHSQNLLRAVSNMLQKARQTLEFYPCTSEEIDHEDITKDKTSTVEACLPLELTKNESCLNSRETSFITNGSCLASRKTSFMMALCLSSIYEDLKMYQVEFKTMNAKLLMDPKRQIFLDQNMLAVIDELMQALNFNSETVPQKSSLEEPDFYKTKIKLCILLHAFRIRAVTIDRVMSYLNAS
T1 sequence (looked up) 2: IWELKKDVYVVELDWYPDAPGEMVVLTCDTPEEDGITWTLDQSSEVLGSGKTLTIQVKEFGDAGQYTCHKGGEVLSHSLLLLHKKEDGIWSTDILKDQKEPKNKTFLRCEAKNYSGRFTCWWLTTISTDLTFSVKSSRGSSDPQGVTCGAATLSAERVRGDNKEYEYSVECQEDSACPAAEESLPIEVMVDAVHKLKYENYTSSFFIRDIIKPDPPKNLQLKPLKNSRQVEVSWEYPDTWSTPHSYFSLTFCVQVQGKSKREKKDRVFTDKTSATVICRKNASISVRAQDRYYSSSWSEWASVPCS
Assay: FACS competition, IL-12-His 20 nM on 293T-IL-12Rβ1&IL-23R cells
Parameter measured: EC50 (µg/mL)
Report the figure in µg/mL without appending any unit label.

Input line: Any idea what its EC50 is? The binder is H5L11 (antibody, human IgG1, kappa, V domains shown, human IgG1 / kappa constant regions; also called humanized antibody H5L11) VH: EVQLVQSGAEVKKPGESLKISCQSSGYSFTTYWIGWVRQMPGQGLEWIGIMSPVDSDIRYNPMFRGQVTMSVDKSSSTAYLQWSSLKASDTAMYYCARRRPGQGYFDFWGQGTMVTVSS VL: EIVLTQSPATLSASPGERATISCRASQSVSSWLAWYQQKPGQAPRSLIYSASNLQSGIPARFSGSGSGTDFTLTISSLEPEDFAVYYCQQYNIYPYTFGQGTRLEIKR
Output line: 0.414

Input line: Any idea what its EC50 is? The binder is ustekinumab (antibody, V domains shown) VH: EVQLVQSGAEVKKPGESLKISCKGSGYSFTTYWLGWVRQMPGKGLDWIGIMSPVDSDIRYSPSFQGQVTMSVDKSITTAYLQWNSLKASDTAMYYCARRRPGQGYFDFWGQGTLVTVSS VL: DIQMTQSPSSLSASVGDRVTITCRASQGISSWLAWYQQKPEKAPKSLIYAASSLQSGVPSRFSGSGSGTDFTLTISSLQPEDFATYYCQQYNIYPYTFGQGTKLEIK
Output line: 0.377

Input line: Any idea what its EC50 is? The binder is H5L14 (antibody, human IgG1, kappa, V domains shown, human IgG1 / kappa constant regions; also called humanized antibody H5L14) VH: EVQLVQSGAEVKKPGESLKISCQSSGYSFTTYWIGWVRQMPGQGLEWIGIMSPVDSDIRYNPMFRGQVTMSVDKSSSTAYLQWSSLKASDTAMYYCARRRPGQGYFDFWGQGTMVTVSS VL: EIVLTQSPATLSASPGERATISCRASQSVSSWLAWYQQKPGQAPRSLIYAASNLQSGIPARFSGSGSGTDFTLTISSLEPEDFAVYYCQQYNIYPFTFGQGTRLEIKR
Output line: 0.532

Input line: Any idea what its EC50 is? The binder is H5L12 (antibody, human IgG1, kappa, V domains shown, human IgG1 / kappa constant regions; also called humanized antibody H5L12) VH: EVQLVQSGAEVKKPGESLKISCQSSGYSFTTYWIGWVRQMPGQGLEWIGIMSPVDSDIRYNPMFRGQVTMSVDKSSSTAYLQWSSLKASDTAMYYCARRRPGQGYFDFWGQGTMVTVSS VL: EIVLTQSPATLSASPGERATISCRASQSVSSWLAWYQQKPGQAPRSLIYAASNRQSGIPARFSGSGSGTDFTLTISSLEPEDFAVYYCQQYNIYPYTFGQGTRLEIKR
Output line: 0.317
